- Method Description: Tissue concentrations of capecitabine and its metabolites 2 h after oral capecitabine in CES2-modified mice
- Type: in vivo, mouse
- Test Parameters: female, mouse, liver, oral, 500 mg/kg, female wild-type mice, oral capecitabine 500 mg/kg, read-out: Cliver (liver concentration)
Each entry below lists one item and its recorded concentration at 2 h value.
Expressed in ng/g, but write only the number.

Previously resolved entries follow.
CCCCCOC(=O)Nc1nc(=O)n([C@@H]2O[C@H](C)[C@@H](O)[C@H]2O)cc1F [Capecitabine, reference compound] : 1300
C[C@H]1O[C@@H](n2cc(F)c(N)nc2=O)[C@H](O)[C@@H]1O [5’-DFCR, 5’-deoxy-5-fluorocytidine] : 20300

Attention now turns to another entry.
# input I am curious: what concentration at 2 h value has been reported for O=c1[nH]cc(F)c(=O)[nH]1 [5-FU, 5-fluorouracil, reference compound] ?
# output 747

###

- Method Description: Tissue concentrations of capecitabine and its metabolites 2 h after oral capecitabine in CES2-modified mice
- Assay type: in vivo, mouse
- Test Parameters: female, mouse, small intestine contents, oral, 500 mg/kg, female Ces2^–/–V mice, oral capecitabine 500 mg/kg, read-out: CSIC (small intestine contents concentration)
Measured Quantity: concentration at 2 h (ng/g)
Expressed in ng/g, but write only the number.

Previously resolved entries follow.
O=c1[nH]cc(F)c(=O)[nH]1 [5-FU, 5-fluorouracil, reference compound] : 263
C[C@H]1O[C@@H](n2cc(F)c(N)nc2=O)[C@H](O)[C@@H]1O [5’-DFCR, 5’-deoxy-5-fluorocytidine] : 5180

Attention now turns to another entry.
# input I am curious: what concentration at 2 h value has been reported for CCCCCOC(=O)Nc1nc(=O)n([C@@H]2O[C@H](C)[C@@H](O)[C@H]2O)cc1F [Capecitabine, reference compound] ?
# output 49700

###

- Method Description: Tissue concentrations of vinorelbine and deacetylvinorelbine 4 h after i.v. vinorelbine in CES2-modified mice
- Assay type: in vivo, mouse
- Test Parameters: male, mouse, small intestine contents, intravenous, 10 mg/kg, male Ces2^–/–V mice, i.v. vinorelbine 10 mg/kg, read-out: CSIC (small intestine contents concentration)
Measured Quantity: concentration at 4 h (ng/g)
Expressed in ng/g, but write only the number.

# input I am curious: what concentration at 4 h value has been reported for CCC1=C[C@@H]2CN(C1)Cc1c([nH]c3ccccc13)[C@@](C(=O)OC)(c1cc3c(cc1OC)N(C)[C@H]1[C@@](O)(C(=O)OC)[C@H](OC(C)=O)[C@]4(CC)C=CCN5CC[C@]31[C@@H]54)C2 [Vinorelbine, reference compound] ?
# output 48400

###

Each entry below lists one item and its recorded concentration at 2 h value.
- Method Description: Tissue concentrations of capecitabine and its metabolites 2 h after oral capecitabine in CES2-modified mice
- Format: in vivo, mouse
- Test Parameters: female, Ces2^-/-A, mouse, small intestine tissue, oral, 500 mg/kg, female Ces2^–/–A mice, oral capecitabine 500 mg/kg, read-out: CSI (small intestine tissue concentration)
Expressed in ng/g, but write only the number.

C[C@H]1O[C@@H](n2cc(F)c(N)nc2=O)[C@H](O)[C@@H]1O : 6220

# input I am curious: what concentration at 2 h value has been reported for CCCCCOC(=O)Nc1nc(=O)n([C@@H]2O[C@H](C)[C@@H](O)[C@H]2O)cc1F [Capecitabine, reference compound] ?
# output 15200

# input I am curious: what concentration at 2 h value has been reported for O=c1[nH]cc(F)c(=O)[nH]1 [5-FU, 5-fluorouracil, reference compound] ?
# output 4430

###

Each entry below lists one item and its recorded concentration at 2 h value.
- Method Description: Tissue concentrations of capecitabine and its metabolites 2 h after oral capecitabine in CES2-modified mice
- Assay type: in vivo, mouse
- Test Parameters: female, mouse, colon, oral, 500 mg/kg, female Ces2^–/–A mice, oral capecitabine 500 mg/kg, read-out: Ccolon (colon concentration)
Expressed in ng/g, but write only the number.

O=c1[nH]cc(F)c(=O)[nH]1 [5-FU, 5-fluorouracil, reference compound] : 1460
C[C@H]1O[C@@H](n2cc(F)c(N)nc2=O)[C@H](O)[C@@H]1O : 28200

Attention now turns to another entry.
# input I am curious: what concentration at 2 h value has been reported for CCCCCOC(=O)Nc1nc(=O)n([C@@H]2O[C@H](C)[C@@H](O)[C@H]2O)cc1F [Capecitabine, reference compound] ?
# output 8780

###

- Method Description: Plasma pharmacokinetics of capecitabine and its metabolites after oral capecitabine in CES2-modified mice
- Format: in vivo, mouse
- Test Parameters: female, mouse, plasma, po, 500 mg/kg, female Ces2^–/–A mice; oral capecitabine 500 mg/kg; plasma; read-out: Tmax
Measured Quantity: Tmax (min)
Expressed in min, but write only the number.

Previously resolved entries follow.
C[C@H]1O[C@@H](n2cc(F)c(N)nc2=O)[C@H](O)[C@@H]1O [5’-DFCR, 5’-deoxy-5-fluorocytidine] : 27.6
CCCCCOC(=O)Nc1nc(=O)n([C@@H]2O[C@H](C)[C@@H](O)[C@H]2O)cc1F [Capecitabine, reference compound] : 10.2

Attention now turns to another entry.
# input I am curious: what Tmax value has been reported for O=c1[nH]cc(F)c(=O)[nH]1 [5-FU, 5-fluorouracil, reference compound] ?
# output 55.2

###

- Method Description: Tissue concentrations of vinorelbine and deacetylvinorelbine 4 h after i.v. vinorelbine in CES2-modified mice
- Type: in vivo, mouse
- Test Parameters: male, mouse, small intestine tissue, intravenous, 10 mg/kg, male Ces2^–/–A mice, i.v. vinorelbine 10 mg/kg, read-out: CSI (small intestine tissue concentration)
- Description: For capecitabine 2-h experiments, 6–7 female mice received oral capecitabine (500 mg/kg, 10 μL/g), and tail vein blood samples were collected at 0.125, 0.25, 0.5 and 1 h after drug administration. […] Concentrations of capecitabine (and its metabolites) and vinorelbine (and its metabolite) in mouse plasma samples and organ homogenates were determined using two independent validated high-performance liquid chromatography-tandem mass spectrometry assays. […]
Measured Quantity: concentration at 4 h (ng/g)
Expressed in ng/g, but write only the number.

# input I am curious: what concentration at 4 h value has been reported for CCC1=C[C@@H]2CN(C1)Cc1c([nH]c3ccccc13)[C@@](C(=O)OC)(c1cc3c(cc1OC)N(C)[C@H]1[C@@](O)(C(=O)OC)[C@H](OC(C)=O)[C@]4(CC)C=CCN5CC[C@]31[C@@H]54)C2 [Vinorelbine, reference compound] ?
# output 5600

###

- Method Description: Tissue concentrations of capecitabine and its metabolites 2 h after oral capecitabine in CES2-modified mice
- Type: in vivo, mouse
- Test Parameters: female, mouse, colon, oral, 500 mg/kg, female wild-type mice, oral capecitabine 500 mg/kg, read-out: Ccolon (colon concentration)
Each entry below lists one item and its recorded concentration at 2 h value.
Expressed in ng/g, but write only the number.

Previously resolved entries follow.
C[C@H]1O[C@@H](n2cc(F)c(N)nc2=O)[C@H](O)[C@@H]1O : 14900
CCCCCOC(=O)Nc1nc(=O)n([C@@H]2O[C@H](C)[C@@H](O)[C@H]2O)cc1F [Capecitabine, reference compound] : 2250

Attention now turns to another entry.
# input I am curious: what concentration at 2 h value has been reported for O=c1[nH]cc(F)c(=O)[nH]1 [5-FU, 5-fluorouracil, reference compound] ?
# output 1190

###

- Method Description: Tissue concentrations of vinorelbine and deacetylvinorelbine 4 h after i.v. vinorelbine in CES2-modified mice
- Assay type: in vivo, mouse
- Test Parameters: male, mouse, colon, intravenous, 10 mg/kg, male Ces2^–/– mice, i.v. vinorelbine 10 mg/kg, read-out: Ccolon (colon concentration)
Measured Quantity: concentration at 4 h (ng/g)
Expressed in ng/g, but write only the number.

# input I am curious: what concentration at 4 h value has been reported for CCC1=C[C@@H]2CN(C1)Cc1c([nH]c3ccccc13)[C@@](C(=O)OC)(c1cc3c(cc1OC)N(C)[C@H]1[C@@](O)(C(=O)OC)[C@H](OC(C)=O)[C@]4(CC)C=CCN5CC[C@]31[C@@H]54)C2 [Vinorelbine, reference compound] ?
# output 5620

###

- Method Description: Tissue concentrations of capecitabine and its metabolites 2 h after oral capecitabine in CES2-modified mice
- Format: in vivo, mouse
- Test Parameters: female Ces2^–/– mice, oral capecitabine 500 mg/kg
Measured Quantity: Liver concentration ratio (metabolite/capecitabine)
I'd appreciate a reply containing only the number, no unit.

O=c1[nH]cc(F)c(=O)[nH]1 [5-FU, 5-fluorouracil, reference compound] : 0.09
C[C@H]1O[C@@H](n2cc(F)c(N)nc2=O)[C@H](O)[C@@H]1O [5’-DFCR, 5’-deoxy-5-fluorocytidine] : 2.0
NCC(F)C(=O)O (stereo not shown) [FBAL] : 4.2

Attention now turns to another entry.
# input I am curious: what Liver concentration ratio (metabolite/capecitabine) value has been reported for C[C@H]1O[C@@H](n2cc(F)c(=O)[nH]c2=O)[C@H](O)[C@@H]1O [5’-DFUR] ?
# output 0.21
